For each record, write down the corresponding Teratogenicity Potential (μM) Cell Viability.
- Tested on: WA09 hES cells
- condition: human, 72 h

QUERY: # input compound: CS(=O)(=O)OCCCCOS(C)(=O)=O [Busulfan] ; wanted: its Teratogenicity Potential (μM) Cell Viability
RESULT: 3 µM

QUERY: What does the record list as Teratogenicity Potential (μM) Cell Viability for O=C1O[C@H]([C@@H](O)CO)C(O)=C1O [Ascorbic Acid] ?
RESULT: >300 µM

QUERY: Tell me the measured Teratogenicity Potential (μM) Cell Viability of CC(=O)Nc1ccc(O)cc1 [Acetaminophen] , please.
RESULT: >300 µM

QUERY: Value lookup for Teratogenicity Potential (μM) Cell Viability; key = N[C@@H](CC(=O)N1CCn2c(nnc2C(F)(F)F)C1)Cc1cc(F)c(F)cc1F [Sitagliptin]
RESULT: >300 µM

QUERY: Which measured Teratogenicity Potential (μM) Cell Viability value corresponds to CO[C@H]1C[C@@H]2CC[C@@H](C)[C@@](O)(O2)C(=O)C(=O)N2CCCC[C@H]2C(=O)O[C@H]([C@H](C)C[C@@H]2CC[C@@H](OCCO)[C@H](OC)C2)CC(=O)[C@H](C)/C=C(\C)[C@@H](O)[C@@H](OC)C(=O)[C@H](C)C[C@H](C)/C=C/C=C/C=C/1C [Everolimus] ?
RESULT: 5.2 µM

QUERY: # get_value(readout='Teratogenicity Potential (μM) Cell Viability', item= Nc1nc2ncc(CNc3ccc(C(=O)N[C@@H](CCC(=O)O)C(=O)O)cc3)nc2c(=O)[nH]1 [Folic Acid] )
RESULT: >300 µM

QUERY: Form field: reported Teratogenicity Potential (μM) Cell Viability of CN(C)CCOC(c1ccccc1)c1ccccc1 [Diphenhydramine]
RESULT: 78.9 µM

QUERY: Endpoint output: Teratogenicity Potential (μM) Cell Viability of Cn1c(=O)c2c(ncn2C)n(C)c1=O [Caffeine] . Value?
RESULT: >300 µM

Hello, the source for this data is patent US10209240B2, in case you need it.
